FYI, the data here is from PubChem BioAssay (NCATS).

System: SKOV3
METHOD SUMMARY: Primary qHTS to identify gynecologic anti-cancer compounds using libraries of approved drugs and bioactive compounds (AID 1345084); also: nearly all actives have a fitted effect of over 55% in size
RUN PARAMETERS: Gynecologic cancer cell panel viability, ATPlite luminescence, 48 h; series mostly up to 57.5 µM
Inconclusive results are not listed. The source made the active and inactive calls. Calls follow the shape of the dose curve; as a rule, active = well fitted cell-killing curve with a large enough effect; inconclusive = small, poorly fitted or top-dose-only effect, or effect the other way; inactive = flat fitted curve, though single readings scatter.
Bench note: report the call from active, inactive

# example entries with known answers
Q) Which outcome was assigned to CC(=O)OC[C@]12[C@H](OC(C)=O)C(=O)[C@@H]3[C@@H](OC(C)=O)[C@@]14O[C@@]3(C)COC(=O)c1cccnc1[C@@H](C)[C@H](C)C(=O)O[C@@H]([C@H](O)[C@@H]2OC(C)=O)[C@]4(C)O in this test?
A) inactive

Q) Which outcome was assigned to C/C1=C\CC[C@]2(C)O[C@@H]2[C@H](O)[C@H](C(C)C)[C@H](OC(=O)/C=C/c2ccccc2)C1 in this test?
A) inactive

Q) Which outcome was assigned to CC(O)CO[C@@H]1O[C@H](CO)[C@@H](O)[C@H](O)[C@H]1O (stereo not given in full) in this test?
A) inactive

Q) Which outcome was assigned to O=C(/C=C/c1ccc(O)cc1)N[C@@H](Cc1ccc(O)cc1)C(=O)O in this test?
A) inactive

Q) Which outcome was assigned to COC(=O)CC(O)CC(O)/C=C/c1c(C)ccc2c1C(O)CC(C)C2 (stereo not given) in this test?
A) inactive

Q) Which outcome was assigned to COc1c/c(=C2\C=c3ccccc3=N2)[nH]/c1=C\c1[nH]c(C)cc1C in this test?
A) active

Q) Which outcome was assigned to Cc1cccc2c1NC(=O)C2(c1ccc(O)cc1)c1ccc(O)cc1 in this test?
A) inactive

Q) Which outcome was assigned to C=C1CCC2C(C)(C(=O)OC)CCCC2(C)C1CCC(C)CC(=O)O (stereo not given) in this test?
A) inactive

Q) Which outcome was assigned to CCn1c(=O)c(-c2ccn[nH]2)cc2c(C)nc(N)nc21 in this test?
A) active

Q) Which outcome was assigned to O=[N+]([O-])c1cccc2[nH]c(CNc3nc(N4CCOCC4)nc4c3ncn4-c3ccsc3)nc12 in this test?
A) active

More entries:
Q) Which outcome was assigned to O=C(Nc1ccccc1-c1cn2c(CN3CCNCC3)csc2n1)c1ccc2ccccc2n1 in this test?
A) inactive

###

Tested on: Zika virus NS2B-NS3 protease (linked construct)
METHOD SUMMARY: Primary screen NINDS Rhodamine qHTS for Zika virus inhibitors (AID 1347160); also: nearly all actives have a fitted effect of over 55% in size
RUN PARAMETERS: purified NS2B-NS3 protease, Rhodamine110 substrate fluorescence; series mostly up to 57.1 µM
Results filed as inconclusive are left out. The source made the active and inactive calls. The call rests on the fitted dose curve; in most records, active means well fitted inhibition curve with a large enough effect; inconclusive means small, poorly fitted or top-dose-only effect; inactive means no such curve, though single readings can be large or run the other way.
Bench note: report the call from active, inactive

Q) Which outcome was assigned to COCCOc1cnc2ccn([C@H](C)c3nnc4c(F)cc(-c5cnn(C)c5)cn34)c(=O)c2c1 in this test?
A) inactive

Q) Which outcome was assigned to C[C@@H]1N[C@H]2N(C1=O)c1ccccc1[C@@]2(O)C[C@@H]1C(=O)N[C@@H](C)c2nc3ccccc3c(=O)n21 in this test?
A) inactive

Q) Which outcome was assigned to CC[C@H]1OC(=O)[C@H](C)[C@@H](O[C@H]2C[C@@](C)(OC)[C@@H](O)[C@H](C)O2)[C@H](C)[C@@H](O[C@@H]2O[C@H](C)C[C@H](N(C)C)[C@H]2O)[C@](C)(O)C[C@@H](C)C(=O)[C@H](C)[C@H]2OC(=O)O[C@@]21C in this test?
A) inactive

Q) Which outcome was assigned to COC1/C=C/C(C)(O)C(SCC(N)C(=O)O)CC(=O)OC(C)C(C)CC/C=C/1C (stereo not given) in this test?
A) inactive

Now look at this entry.
Q) Which outcome was assigned to CC1(C)CC[C@]2(C(=O)O)CC[C@]3(C)C(=CCC4[C@@]5(C)C[C@@H](O)[C@H](O)C(C)(C)C5CC[C@]43C)C2C1 (stereo not given in full) in this test?
A) active
